pIC50: −log10 of the molar value.
Collected literature values of pIC50 measured for Poly [ADP-ribose] polymerase 1 (Homo sapiens, UniProt P09874).

| MOLECULE | OPERATOR | pIC50 |
| --- | --- | --- |
| O=C(c1ccc2[nH]c(=O)c3c(c2c1)CCSC3)N1CCNCC1 | = | 8.10 |
| CN1CCc2sc(-c3ccc4c(Cl)cc(C(N)=O)n4n3)cc2C1 | = | 6.81 |
| O=C(c1ccccn1)N1CCN(C(=O)c2cc(Cc3c[nH]c(=O)c4cc(Cl)c(Cl)n34)ccc2F)CC1 | = | 8.62 |
| O=c1[nH]cnc2cccc(F)c12 | = | 5.15 |
| Nc1ccc2c3c(cccc13)C(=O)NC2=O | = | 7.59 |
| O=c1[nH]c2c(nc3cc(Cl)ccn32)c2ccccc12 | = | 5.23 |
| CCN(CC)Cc1ccc(-c2nnc3n2CCN(C(=O)c2cc(Cc4n[nH]c(=O)c5ccccc45)ccc2F)C3)o1 | = | 9.02 |
| COc1ccccc1N1CCN(CCCc2nc3ccccc3c(=O)[nH]2)CC1 | = | 6.72 |
| O=c1[nH]nc2c3c(cccc13)NC(c1ccc(F)cc1)C2c1nccs1 (stereo not given) | = | 8.13 |
| CC(=O)N1CCCN(C(=O)c2cc(Cc3n[nH]c(=O)c4ccccc34)ccc2F)CC1 | = | 7.92 |
| COc1cc(N(C)c2ccc3c(C)n(C)nc3c2)nc(Nc2ccc(-c3nc4c(C(N)=O)cccc4[nH]3)cc2)n1 | = | 7.10 |
| O=C(CCc1nc2ccccc2c(=O)[nH]1)N[C@@H]1CCc2ccccc21 | = | 6.11 |
| CC(C)(C)c1ccc(C2NC(=O)c3ccccc3N2)cc1 (stereo not given) | < | 4.00 |
| O=C(c1cc(Cc2n[nH]c(=O)c3ccccc23)cc(F)c1F)N1CCN(c2ccc(F)cc2)CC1 | = | 9.40 |
| CC(C)C[C@H](NC(=O)[C@H](Cc1c[nH]c2ccccc12)NC(=O)c1cc(Cc2n[nH]c(=O)c3ccccc23)ccc1F)B1O[C@@H]2C[C@@H]3C[C@@H](C3(C)C)[C@]2(C)O1 | = | 7.55 |
| NC(=O)c1cccc2nn(-c3ccccc3)nc12 | = | 7.15 |
| COC1CCN(C(=O)c2ccc(-c3ccc4c(Cl)cc(C(N)=O)n4n3)cc2)CC1 | = | 5.45 |
| CC1(C)OC(=O)N(c2ccc(-c3cnc(N)c(-c4ncccn4)c3)cc2)[C@H]1c1ccccc1 | < | 4.07 |
| NC(=O)c1ccccc1OCc1cccc(NC(=O)c2ccc(Br)cc2)c1 | = | 9.60 |
| O=C(c1cc(Cc2n[nH]c(=O)c3ccccc23)ccc1F)N1CCN(C(=O)C2CCCC2)CC1 | = | 8.70 |
| CNCc1ccc(-n2cc3cc(F)cc(C(N)=O)c3n2)cc1F | = | 8.70 |
| Cc1ccc2nc3c4ccccc4c(=O)[nH]c3n2c1 | = | 5.37 |
| Cc1ccc2nc3ccccc3c(Nc3ccc(-c4nc5c(C(N)=O)cccc5[nH]4)cc3)c2c1 | = | 7.00 |
| CC(=O)N1CCN(C(=O)c2csc(Cc3n[nH]c(=O)c4ccccc34)c2)CC1 | = | 6.91 |
| CNC(C)(C)C(=O)N1CCN(C(=O)c2cc(Cc3c[nH]c(=O)c4cc(Cl)c(Cl)n34)ccc2F)CC1 | = | 8.70 |
